# Test system: 138582-337-R-J1-PDC complex spheroid viability
# ASSAY COMMENT: Anticancer human tumor 138582-337-R-J1-PDC patient-derived Merkel cell tumor cell line growth inhibition
# ASSAY CONTEXT: curve of first compound; second compound 10 µM
QUANTITY KIND: IC50

Looking up CC[C@@]1(O)C(=O)OCc2c1cc1n(c2=O)Cc2cc3c(CN(C)C)c(O)ccc3nc2-1 + NC1CCC(NC2CC2c2ccccc2)CC1 , I see its IC50 listed as > 100 nM

Looking up Cn1ncnc1C1c2n[nH]c(=O)c3cc(F)cc(c23)NC1c1ccc(F)cc1 (stereo unspecified) + NC1CC1c1ccc(-c2cccc(O)c2)cc1 , I see its IC50 listed as > 100 nM

Looking up CCN(c1cc(-c2ccc(CN3CCOCC3)cc2)cc(C(=O)NCc2c(C)cc(C)[nH]c2=O)c1C)C1CCOCC1 + NC1CC1c1ccc(-c2cccc(O)c2)cc1 , I see its IC50 listed as > 3000 nM

* * *

# Test system: 138582-337-R-J1-PDC complex spheroid viability
# ASSAY COMMENT: Anticancer human tumor 138582-337-R-J1-PDC cell line growth inhibition;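 further: spheroids exposed to agents for 7 days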;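 on viability, T/C: 100% = DMSO vehicle control viability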
# ASSAY CONTEXT: second compound 1 µM; first compound 0.316 µM; stronger effect = lower value
QUANTITY KIND: viability, T/C

Example entries and their recorded answers appear below.
1. CC1COCCN1c1cc(-c2ccnn2C)c2ccnc(-c3ccn[nH]3)c2n1 (stereo not given) + NC1CCC(NC2CC2c2ccccc2)CC1 :: 50.3%
2. CC1(C)CCC(CN2CCN(c3ccc(C(=O)NS(=O)(=O)c4ccc(NCC5CCOCC5)c([N+](=O)[O-])c4)c(Oc4cnc5[nH]ccc5c4)c3)CC2)=C(c2ccc(Cl)cc2)C1 + NC1CC1c1ccc(-c2cccc(O)c2)cc1 :: 78%
3. CC1(C)CCC(CN2CCN(c3ccc(C(=O)NS(=O)(=O)c4ccc(NCC5CCOCC5)c([N+](=O)[O-])c4)c(Oc4cnc5[nH]ccc5c4)c3)CC2)=C(c2ccc(Cl)cc2)C1 + NC1CCC(NC2CC2c2ccccc2)CC1 :: 82.3%
4. COc1cc(Nc2ncc3c(n2)-c2ccc(Cl)cc2C(c2c(F)cccc2OC)=NC3)ccc1C(=O)O + NC1CCC(NC2CC2c2ccccc2)CC1 :: 96.3%
5. O=C(C=Cn1cnc(-c2cc(C(F)(F)F)cc(C(F)(F)F)c2)n1)NNc1cnccn1 + NC1CC1c1ccc(-c2cccc(O)c2)cc1 :: 18.6%

Looking up CC1COCCN1c1cc(C2(S(C)(=N)=O)CC2)nc(-c2ccnc3[nH]ccc23)n1 (stereo not given) + NC1CCC(NC2CC2c2ccccc2)CC1 , I see its viability, T/C listed as 100%

Looking up CC(C)c1c(-c2ccccc2)nc2c(C#N)c[nH]n2c1=O + NC1CCC(NC2CC2c2ccccc2)CC1 , I see its viability, T/C listed as 85.7%

Looking up COc1cc(Nc2ncc3c(n2)-c2ccc(Cl)cc2C(c2c(F)cccc2OC)=NC3)ccc1C(=O)O + NC1CC1c1ccc(-c2cccc(O)c2)cc1 , I see its viability, T/C listed as 46.7%

Looking up CC1COCCN1c1cc(C2(S(C)(=N)=O)CC2)nc(-c2ccnc3[nH]ccc23)n1 (stereo not given) + NC1CC1c1ccc(-c2cccc(O)c2)cc1 , I see its viability, T/C listed as 62.6%

Looking up COc1ccc([C@@H](O)c2cc(-c3ncnc4cc(N5CCOCC5)ccc34)c(F)cc2Cl)nn1 + NC1CC1c1ccc(-c2cccc(O)c2)cc1 , I see its viability, T/C listed as 61%

* * *

# Test system: 138582-337-R-J1-PDC complex spheroid viability
# ASSAY COMMENT: Anticancer human tumor 138582-337-R-J1-PDC cell line growth inhibition;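 further: spheroids exposed to agents for 7 days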;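 on viability, T/C: 100% = DMSO vehicle control viability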
# ASSAY CONTEXT: second compound 10 µM; first compound 10 µM; stronger effect = lower value
QUANTITY KIND: viability, T/C (%)
Your answer should be a plain number; it is taken to be in %.

1. CC1COCCN1c1cc(C2(S(C)(=N)=O)CC2)nc(-c2ccnc3[nH]ccc23)n1 (stereo not drawn) + NC1CC1c1ccc(-c2cccc(O)c2)cc1 :: 41.6
2. COc1ccc([C@@H](O)c2cc(-c3ncnc4cc(N5CCOCC5)ccc34)c(F)cc2Cl)nn1 + NC1CCC(NC2CC2c2ccccc2)CC1 :: 14.2

Looking up COc1ccc([C@@H](O)c2cc(-c3ncnc4cc(N5CCOCC5)ccc34)c(F)cc2Cl)nn1 + NC1CC1c1ccc(-c2cccc(O)c2)cc1 , I see its viability, T/C listed as 25.3

* * *

# Tested on: 138582-337-R-J1-PDC complex spheroid viability
# ASSAY COMMENT: Anticancer human tumor 138582-337-R-J1-PDC cell line growth inhibition; active = viability on the fitted dose curve at most 10% of control; inactive = the rest;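 further: spheroids exposed to agents for 7 days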
# ASSAY CONTEXT: second compound 3.16 µM; first compound 0.001 µM
The categories you may choose from are class 1 = active, class 0 = inactive

1. Cn1ncnc1C1c2n[nH]c(=O)c3cc(F)cc(c23)NC1c1ccc(F)cc1 (stereo not drawn) + NC1CCC(NC2CC2c2ccccc2)CC1 :: class 0
2. CC[C@@]1(O)C(=O)OCc2c1cc1n(c2=O)Cc2cc3c(CN(C)C)c(O)ccc3nc2-1 + NC1CCC(NC2CC2c2ccccc2)CC1 :: class 0

Now turn to the next molecule.
Query: Record lookup: outcome of this test for CC(C)CC(NC(=O)C(Cc1ccccc1)NC(=O)c1cnccn1)B(O)O (stereo not drawn) + NC1CC1c1ccc(-c2cccc(O)c2)cc1 ?
Reply: class 1

* * *

# Test system: 138582-337-R-J1-PDC complex spheroid viability
# ASSAY COMMENT: Anticancer human tumor 138582-337-R-J1-PDC cell line growth inhibition;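 further: spheroids exposed to agents for 7 days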
# ASSAY CONTEXT: curve of first compound; second compound 10 µM
We label by threshold. Values of IC50 strictly beneath 300 nM are true. Values of 300 nM and up are false.

1) O=C(C=Cn1cnc(-c2cc(C(F)(F)F)cc(C(F)(F)F)c2)n1)NNc1cnccn1 + NC1CC1c1ccc(-c2cccc(O)c2)cc1 :: true
2) Nc1ccccc1NC(=O)c1ccc(CNC(=O)OCc2cccnc2)cc1 + NC1CC1c1ccc(-c2cccc(O)c2)cc1 :: true
3) CC1COCCN1c1cc(-c2ccnn2C)c2ccnc(-c3ccn[nH]3)c2n1 (stereo not given) + NC1CCC(NC2CC2c2ccccc2)CC1 :: false
4) CC1COCCN1c1cc(C2(S(C)(=N)=O)CC2)nc(-c2ccnc3[nH]ccc23)n1 (stereo not given) + NC1CCC(NC2CC2c2ccccc2)CC1 :: false

Query: Lab note: confirm whether the reported IC50 for this compound is below 300 nM, equality not counting. compound: CC1COCCN1c1cc(-c2ccnn2C)c2ccnc(-c3ccn[nH]3)c2n1 (stereo not given) + NC1CC1c1ccc(-c2cccc(O)c2)cc1
Reply: true

* * *

# System: 138582-337-R-J1-PDC complex spheroid viability
# ASSAY COMMENT: Anticancer human tumor 138582-337-R-J1-PDC cell line growth inhibition;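 further: spheroids exposed to agents for 7 days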;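 on viability, T/C: 100% = DMSO vehicle control viability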
# ASSAY CONTEXT: second compound 0.1 µM; first compound 0.949 µM; stronger effect = lower value
# From the text: Multicellular complex tumor spheroid response to LSD1 Inhibitor Iadademstat in combination with a variety of drugs and investigational agents in selected tumor cell lines The current study was undertaken to assess response to LSD1 inhibitors in combination with standard-of-care drugs and investigational agents in solid tumor complex spheroid models as well as in the K-562 leukemia. […] Compounds. […] If the clinical Cmax for an agent had not been determined, the highest concentration tested was 10 microM. […]
Reported viability, T/C is given for each of the following compounds.
Your answer should be a plain number; it is taken to be in %.

1) O=C(C=Cc1cccc(S(=O)(=O)Nc2ccccc2)c1)NO + NC1CCC(NC2CC2c2ccccc2)CC1 :: 30.4
2) O=C(C=Cc1cccc(S(=O)(=O)Nc2ccccc2)c1)NO + NC1CC1c1ccc(-c2cccc(O)c2)cc1 :: 0.36
3) COc1cc(C2c3cc4c(cc3C(OC3OC5COC(C)OC5C(O)C3O)C3COC(=O)C23)OCO4)cc(OC)c1O (stereo not given) + NC1CCC(NC2CC2c2ccccc2)CC1 :: 70.3
4) NS(=O)(=O)OCC1CC(n2ccc3c(NC4CCc5ccccc54)ncnc32)CC1O (stereo not given) + NC1CCC(NC2CC2c2ccccc2)CC1 :: 40.5

From here, focus on the item given below.
// assay 138582-337-R-J1-PDC complex spheroid viability, entry CCN(c1cc(-c2ccc(CN3CCOCC3)cc2)cc(C(=O)NCc2c(C)cc(C)[nH]c2=O)c1C)C1CCOCC1 + NC1CCC(NC2CC2c2ccccc2)CC1 , viability, T/C value = 106

* * *

# System: 138582-337-R-J1-PDC complex spheroid viability
# ASSAY COMMENT: Anticancer human tumor 138582-337-R-J1-PDC cell line growth inhibition;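 further: spheroids exposed to agents for 7 days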;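 on viability, T/C: 100% = DMSO vehicle control viability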
# ASSAY CONTEXT: second compound 0.316 µM; first compound 0.3 µM; stronger effect = lower value
Reported viability, T/C is given for each of the following molecules.

Example entries and their recorded answers appear below.
1. Nc1ccccc1NC(=O)c1ccc(CNC(=O)OCc2cccnc2)cc1 + NC1CC1c1ccc(-c2cccc(O)c2)cc1 :: 57.4%
2. NS(=O)(=O)OCC1CC(n2ccc3c(NC4CCc5ccccc54)ncnc32)CC1O (centres undefined) + NC1CCC(NC2CC2c2ccccc2)CC1 :: 67.3%
3. Nc1ncn(C2CC(O)C(CO)S2)c(=O)n1 (centres undefined) + NC1CC1c1ccc(-c2cccc(O)c2)cc1 :: 78.3%
4. Nc1ccn(C2OC(CO)C(O)C2(F)F)c(=O)n1 (centres undefined) + NC1CCC(NC2CC2c2ccccc2)CC1 :: 106%
5. CCN(c1cc(-c2ccc(CN3CCOCC3)cc2)cc(C(=O)NCc2c(C)cc(C)[nH]c2=O)c1C)C1CCOCC1 + NC1CCC(NC2CC2c2ccccc2)CC1 :: 95.3%

Looking up CCc1c2c(nc3ccc(O)cc13)-c1cc3c(c(=O)n1C2)COC(=O)[C@]3(O)CC + NC1CC1c1ccc(-c2cccc(O)c2)cc1 , I see its viability, T/C listed as 0.24%

Looking up Nc1ccn(C2OC(CO)C(O)C2(F)F)c(=O)n1 (centres undefined) + NC1CC1c1ccc(-c2cccc(O)c2)cc1 , I see its viability, T/C listed as 67.9%

Looking up O=C(C=Cc1cccc(S(=O)(=O)Nc2ccccc2)c1)NO + NC1CCC(NC2CC2c2ccccc2)CC1 , I see its viability, T/C listed as 93.6%

Looking up Nc1ccccc1NC(=O)c1ccc(CNC(=O)OCc2cccnc2)cc1 + NC1CCC(NC2CC2c2ccccc2)CC1 , I see its viability, T/C listed as 86.1%
